- Test system: Phosphorylation of ERK1/2 in A549 cells
- measurement_notes: Phospho-ERK1/2 MSD Assay (A549)
- Format: cell-based
- test_parameters: Homo sapiens, read-out: pERK IC50 (4 h), 4 h compound treatment
property_name: IC50

Task: Could you please provide reported IC50 for C=CC(=O)N1CC(NC(=O)Cn2cc(-c3c(C)ccc4cn[nH]c34)c3cc(Br)ccc32)C1 [Example 130] ? Thanks!
Output: 50.1 µM

Task: Could you please provide reported IC50 for C=CC(=O)N1CC(N(C)C(=O)Cn2cc(I)c3cc(Br)ccc32)C1 [Example 43] ? Thanks!
Output: > 33.3 µM

Task: Could you please provide reported IC50 for C=CC(=O)N1CC(NC(=O)Cn2c3c(c4cc(Br)ccc42)CC(c2ccccc2)CC3)C1 (centres unmarked) [Example 133] ? Thanks!
Output: > 100 µM

Task: Could you please provide reported IC50 for C=CC(=O)N1CC(NC(=O)Cn2cc(-c3ccccc3C(C)C)c3cc(Br)cc(C)c32)C1 [Example 119] ? Thanks!
Output: > 100 µM

Task: Could you please provide reported IC50 for C=CC(=O)N1CC(NC(=O)Cn2cc(I)c3cc([N+](=O)[O-])ccc32)C1 [Example 128] ? Thanks!
Output: > 100 µM

Task: Could you please provide reported IC50 for C=CC(=O)N1CC(NC(=O)Cn2c(C)c(-c3ccccc3C(C)C)c3cc(Cl)ccc32)C1 [Example 5-3] ? Thanks!
Output: > 33.3 µM

Task: Could you please provide reported IC50 for C=CC(=O)N1CC(NC(=O)Cn2c3c(c4cc(Br)ccc42)CN(C(=O)OCc2ccccc2)CC3)C1 [Example 141] ? Thanks!
Output: 19.3 µM

Task: Could you please provide reported IC50 for C=CC(=O)N1CC(NC(=O)Cn2c(C)c(-c3cncnc3C(C)C)c3cc(Cl)ccc32)C1 [Example 5-2] ? Thanks!
Output: > 100 µM
